Reference source: PubChem BioAssay (EPA / NIEHS)

Read-out: Vascular cell adhesion molecule 1 (VCAM1), VCAM1 (gene 7412)
Assay: BSK_4H_VCAM1: BioMAP Diversity Plus: 4H Assay for Vascular cell adhesion molecule 1 (VCAM1) Biomarker Activity (AID 2283033);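 note: cell-surface VCAM-1 protein measured by ELISA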
Settings: primary human endothelial cells (HUVEC); actives raise or lower the signal
Activity calls are given as the source filed them. Rule for the calls: active = hit-call score of the fitted dose curve at least 0.9, where 1 is the maximum; inactive = score below 0.9.
OBSERVABLE: outcome

CCc1cccc(CC)c1N; inactive
O=C(O)c1cccc(C(=O)O)c1; inactive
CCCCCCCC1CCC(=O)O1 (stereo not drawn); inactive
CCCCCOC(C)=O; inactive
FC(F)C(F)(F)COCC1CO1 (stereo not drawn); inactive
CC(C)CC(C)O (stereo not drawn); inactive
OC(Cn1cncn1)(Cn1cncn1)c1ccc(F)cc1F; inactive
OCc1ccccc1; inactive

Reported outcome for CCCCC(CC)C(=O)OCCOCCOCCOC(=O)C(CC)CCCC (stereo not drawn) : what is it? inactive

Reported outcome for `CC1(C)C(=O)N(Cl)C(=O)N1Cl` : what is it? inactive

Reported outcome for `Nc1ccn([C@@H]2O[C@H](CO)[C@@H](O)[C@@H]2O)c(=O)n1` : what is it? inactive

---

Read-out: Low-density lipoprotein receptor (LDLR), LDLR (gene 3949)
Assay: BSK_CASM3C_LDLR: BioMAP Diversity Plus: CASM3C Assay for Low-density lipoprotein receptor (LDLR) Biomarker Activity (AID 2283045);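 note: LDLR protein level on the cell surface quantified by ELISA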
Conditions: primary human coronary artery smooth muscle cells; actives raise or lower the signal
Active and inactive are the calls of the source. The calls were made as follows: active = hit-call score of the fitted dose curve at least 0.9, where 1 is the maximum; inactive = score below 0.9.
Write down the outcome that applies. Available outcomes: 1 = active, -1 = inactive

Record lookup: outcome of this test for `C=CCc1cc(S(=O)(=O)c2ccc(O)c(CC=C)c2)ccc1O` ? 1

Record lookup: outcome of this test for `Cc1ccc(S(=O)(=O)NC(=O)NN2CCCCCC2)cc1` ? -1

Record lookup: outcome of this test for `OCCNCCO` ? -1

Record lookup: outcome of this test for CC(C)CC(C)O (stereo not given) ? -1

Record lookup: outcome of this test for `NC(=O)N1c2ccccc2C=Cc2ccccc21` ? -1

Record lookup: outcome of this test for `c1ccc2ncccc2c1` ? -1

Record lookup: outcome of this test for `COc1cc2c(c(OC)c1OC)-c1ccc(OC)c(=O)cc1[C@@H](NC(C)=O)CC2` ? -1

Record lookup: outcome of this test for `CCCCOC(=O)c1ccccc1` ? -1

Record lookup: outcome of this test for `O=C(Cl)C(F)(F)C(F)(F)C(F)(F)C(=O)Cl` ? -1

Record lookup: outcome of this test for `Nc1ccn([C@@H]2O[C@H](CO)[C@@H](O)[C@@H]2O)c(=O)n1` ? -1

Record lookup: outcome of this test for `c1ccc2cc3ccccc3cc2c1` ? -1

Record lookup: outcome of this test for `O=S(=O)(O)c1ccc(N=Nc2c(O)ccc3cc(S(=O)(=O)O)ccc23)cc1` ? -1

Record lookup: outcome of this test for `C[Si](C)(C)C(F)(F)C(F)(F)C(F)(F)F` ? -1

Record lookup: outcome of this test for `C[C@@H](Oc1ccc(CNC(=O)c2cccnc2Oc2ccc3c(c2)OCO3)c(F)c1)C(=O)O` ? -1

Record lookup: outcome of this test for `CCc1ccc(O)c(C(C)(C)C)c1` ? -1

---

Read-out: Monokine induced gamma interferon (MIG), CXCL9 (gene 4283)
Assay: BSK_3C_MIG: BioMAP Diversity Plus: 3C Assay for Monokine induced gamma interferon (MIG) Biomarker Activity (AID 2283021)
Conditions: primary human endothelial cells (HUVEC); actives raise or lower the signal
Protocol: BSK_3C is a cell-based, multiplexed-readout assay that uses umbilical vein endothelium, a human vascular primary cell, with measurements taken at 24 hours after chemical dosing in a 96-well plate.BSK_3C_MIG is an assay component measured in the BSK_3C assay. It measures MIG antibody related to regulation of gene expression using ELISA technology.Data from the assay component BSK_3C_MIG was analyzed into 1 assay endpoint. […]
The source made the active and inactive calls. The calls were made as follows: active = hit-call score of the fitted dose curve at least 0.9, where 1 is the maximum; inactive = score below 0.9.
Write down the outcome that applies. Available outcomes: YES = active, NO = inactive

Record lookup: outcome of this test for CC(C)CCCCCCOC(=O)C1CCCCC1C(=O)OCCCCCCC(C)C (centres undefined) ? NO

Record lookup: outcome of this test for `COCc1nnc(-c2ccc[n+]([O-])c2)n1-c1c(Cl)c(Cl)cc2[nH]c(=O)c(=O)[nH]c12` ? NO

Record lookup: outcome of this test for CCCCC(CC)C(=O)OCCOCCOCCOC(=O)C(CC)CCCC (centres undefined) ? NO

Record lookup: outcome of this test for `CCCCCCCCCCCCCCO` ? YES

Record lookup: outcome of this test for `O=C1CN(N=Cc2ccc([N+](=O)[O-])o2)C(=O)N1` ? NO

Record lookup: outcome of this test for `CCCCCOC(C)=O` ? NO

Record lookup: outcome of this test for `FC(F)(F)COC(OCC(F)(F)F)OCC(F)(F)F` ? NO

Record lookup: outcome of this test for `C=CCc1cc(S(=O)(=O)c2ccc(O)c(CC=C)c2)ccc1O` ? YES

Record lookup: outcome of this test for `OC[C@H]1O[C@@H]2O[C@H]3[C@H](O)[C@@H](O)[C@@H](O[C@H]4[C@H](O)[C@@H](O)[C@@H](O[C@H]5[C@H](O)[C@@H](O)[C@@H](O[C@H]6[C@H](O)[C@@H](O)[C@@H](O[C@H]7[C@H](O)[C@@H](O)[C@@H](O[C@H]1[C@H](O)[C@H]2O)O[C@@H]7CO)O[C@@H]6CO)O[C@@H]5CO)O[C@@H]4CO)O[C@@H]3CO` ? NO

Record lookup: outcome of this test for `O=C(O)c1cccc(C(=O)O)c1` ? NO

Record lookup: outcome of this test for CC(C)CC(C)O (centres undefined) ? NO

Record lookup: outcome of this test for `OC[C@H]1O[C@@](CO)(O[C@H]2O[C@H](CO)[C@@H](O)[C@H](O)[C@H]2O)[C@@H](O)[C@@H]1O` ? NO

Record lookup: outcome of this test for `CCOC(N)=O` ? NO

Record lookup: outcome of this test for `O=S(=O)(O)CCC(F)(F)C(F)(F)C(F)(F)C(F)(F)C(F)(F)C(F)(F)F` ? NO

---

Read-out: Insulin Like Growth Factor 1 (IGF1), IGF1 (gene 3479)
Assay: LTEA_HepaRG_IGF1: Life Technologies and Expression Analysis (LTEA) Assay for Insulin Like Growth Factor 1 (IGF1) using HepaRG (AID 2283506)
Conditions: mRNA level, 48 h; actives raise or lower the signal
Active and inactive are the calls of the source. How the source made its calls: active means hit-call score of the fitted dose curve at least 0.9, where 1 is the maximum; inactive means score below 0.9.
OBSERVABLE: AC50

The following molecules have reported results that may help.
c1ccc(C(O[C@@H]2CCCN(CCc3ccc4c(c3)OCO4)C2)c2ccccc2)cc1; 58 µM (active)
NC(N)=O; inactive
OCCNCCO; inactive
OC(CCl)CCl; inactive
CNC(C)=O; inactive

Reported AC50 for `CCCCCOC(C)=O` : what is it? inactive

Reported AC50 for `OCc1ccccc1` : what is it? inactive

Reported AC50 for `OC[C@H]1O[C@@H]2O[C@H]3[C@H](O)[C@@H](O)[C@@H](O[C@H]4[C@H](O)[C@@H](O)[C@@H](O[C@H]5[C@H](O)[C@@H](O)[C@@H](O[C@H]6[C@H](O)[C@@H](O)[C@@H](O[C@H]7[C@H](O)[C@@H](O)[C@@H](O[C@H]1[C@H](O)[C@H]2O)O[C@@H]7CO)O[C@@H]6CO)O[C@@H]5CO)O[C@@H]4CO)O[C@@H]3CO` : what is it? inactive

Reported AC50 for `CCOc1ccc2[nH]cc(C(=O)NCc3ccccc3)c(=O)c2n1` : what is it? 15.8 µM (active)

Reported AC50 for `O=S(=O)(O)c1ccc(N=Nc2c(O)ccc3cc(S(=O)(=O)O)ccc23)cc1` : what is it? inactive

Reported AC50 for CCCCCCCC1CCC(=O)O1 (stereo not given) : what is it? inactive

---

Experiment: Tanguay_ZF_120hpf_PE_legacy: (Legacy) Oregon State University Tanguay Lab 120 Hour Post-fertilization zebrafish Assay for Pericardial Edema (AID 2283640)
Results filed as inconclusive are left out. Activity calls are given as the source filed them. Rule for the calls: active = hit-call score of the fitted dose curve at least 0.9, where 1 is the maximum; inconclusive = response in the unintended direction; inactive = score below 0.9.
Write down the outcome that applies. Available outcomes: true (active), false (inactive)

Record lookup: outcome of this test for `Cc1nccn1-c1ccc(Sc2cccc(C3(C(N)=O)CCOCC3)c2)cc1` ? false

Record lookup: outcome of this test for `Cc1nc(-c2ccccn2)ncc1C(=O)Nn1cc(C)c2cc(F)ccc21` ? false

Record lookup: outcome of this test for `O=C(O)c1cccc(C[C@@H]2COc3ccc(OCc4nc5cc(F)ccc5s4)cc3[C@@H]2O)c1` ? true

Record lookup: outcome of this test for `CCCCCCOC(=O)CC(CC(=O)OCCCCCC)(OC(=O)CCC)C(=O)OCCCCCC` ? false

Record lookup: outcome of this test for `O=C(O)c1ccc2c(c1)nc(C(=O)NC1CCN(C3CC3)CC1)n2Cc1cc(-c2ccc(Cl)s2)on1` ? false

Record lookup: outcome of this test for `O=c1[nH]cnc2c1ncn2[C@H]1CC[C@@H](CO)O1` ? false

Record lookup: outcome of this test for `OC(CCl)CCl` ? false

Record lookup: outcome of this test for `COS(C)(=O)=O` ? false

Record lookup: outcome of this test for `Cc1ncc([C@@H](CCCCCCc2ccc3c(n2)NCCC3)CC(=O)O)cn1` ? false

Record lookup: outcome of this test for `OC[C@H]1O[C@@](CO)(O[C@H]2O[C@H](CO)[C@@H](O)[C@H](O)[C@H]2O)[C@@H](O)[C@@H]1O` ? false

Record lookup: outcome of this test for `NC(=O)NN=Cc1ccc([N+](=O)[O-])o1` ? false

Record lookup: outcome of this test for CCCCCCCC1CCC(=O)O1 (stereo not given) ? false

Record lookup: outcome of this test for `CC(C)C(=O)Nc1ccc([N+](=O)[O-])c(C(F)(F)F)c1` ? false

Record lookup: outcome of this test for `CC1(C)C(=O)N(Cl)C(=O)N1Cl` ? false

Record lookup: outcome of this test for `c1ccc2cc3ccccc3cc2c1` ? false

Record lookup: outcome of this test for `CNC(C)=O` ? false

Record lookup: outcome of this test for `c1ccc(C(O[C@@H]2CCCN(CCc3ccc4c(c3)OCO4)C2)c2ccccc2)cc1` ? true

Record lookup: outcome of this test for `OC[C@H]1O[C@@H]2O[C@H]3[C@H](O)[C@@H](O)[C@@H](O[C@H]4[C@H](O)[C@@H](O)[C@@H](O[C@H]5[C@H](O)[C@@H](O)[C@@H](O[C@H]6[C@H](O)[C@@H](O)[C@@H](O[C@H]7[C@H](O)[C@@H](O)[C@@H](O[C@H]1[C@H](O)[C@H]2O)O[C@@H]7CO)O[C@@H]6CO)O[C@@H]5CO)O[C@@H]4CO)O[C@@H]3CO` ? false

Record lookup: outcome of this test for `Cn1c(=O)c2[nH]cnc2n(C)c1=O` ? false

Record lookup: outcome of this test for `C=CCc1cc(S(=O)(=O)c2ccc(O)c(CC=C)c2)ccc1O` ? false

Record lookup: outcome of this test for `COc1cc(C(C)C)c2c(c1)S(=O)(=O)N(COc1cc(=O)n3cccc(OCCN4CCCCC4)c3n1)C2=O` ? true

Record lookup: outcome of this test for `CCCCN1C(=O)[C@@H]([C@H](O)C2CCCCC2)NC(=O)C12CCN(Cc1ccc(Oc3ccc(C(=O)O)cc3)cc1)CC2` ? false

Record lookup: outcome of this test for `O=C(NO)C1(NS(=O)(=O)c2ccc(Oc3ccc(F)cc3)cc2)CCOCC1` ? false

Record lookup: outcome of this test for `CCc1ccc(O)c(C(C)(C)C)c1` ? false

Record lookup: outcome of this test for `Cc1ccc(S(=O)(=O)NC(=O)NN2CCCCCC2)cc1` ? false
